assay: in vitro; details: human, % of cell viability compared to control, 3. measurement, HepG2, 50 µM
Collected viability at 50 µM values appear next to each entry.
MEASURE: viability at 50 µM (%)

[
  {
    "COMPOUND": "COc1ccc2cc3[n+](cc2c1OCc1ccccc1)CCc1cc2c(cc1-3)OCO2 [16a, 9-O-benzylberberine chloride]",
    "MEASURE": "viability at 50 µM",
    "VALUE MEASURED": 44.9
  },
  {
    "COMPOUND": "COc1ccc2cc3[n+](cc2c1OCc1ccc(Cl)c(Cl)c1)CCc1cc2c(cc1-3)OCO2 [16k]",
    "MEASURE": "viability at 50 µM",
    "VALUE MEASURED": 11.7
  },
  {
    "COMPOUND": "COc1ccc2cc3[n+](cc2c1OCc1ccc(Cl)cc1)CCc1cc2c(cc1-3)OCO2 [16i, 9-O-(4-chlorbenzyl)berberine chloride]",
    "MEASURE": "viability at 50 µM",
    "VALUE MEASURED": 2.8
  },
  {
    "COMPOUND": "COc1ccc2cc3[n+](cc2c1OCc1cccc(C)c1)CCc1cc2c(cc1-3)OCO2 [16c, 9-O-(3-methylbenzyl)berberine chloride]",
    "MEASURE": "viability at 50 µM",
    "VALUE MEASURED": 47.3
  },
  {
    "COMPOUND": "COc1ccc2cc3[n+](cc2c1OCc1ccc(C)cc1)CCc1cc2c(cc1-3)OCO2 [16d, 9-O-(4-methylbenzyl)berberine chloride]",
    "MEASURE": "viability at 50 µM",
    "VALUE MEASURED": 45.2
  },
  {
    "COMPOUND": "COc1ccc2cc3[n+](cc2c1OCc1ccccc1C)CCc1cc2c(cc1-3)OCO2 [16b, 9-O-(2-methylbenzyl)berberine chloride]",
    "MEASURE": "viability at 50 µM",
    "VALUE MEASURED": 44.9
  },
  {
    "COMPOUND": "COc1ccc2cc3[n+](cc2c1OCc1cccc(Br)c1)CCc1cc2c(cc1-3)OCO2 [16f, 9-O-(3-brombenzyl)berberine chloride]",
    "MEASURE": "viability at 50 µM",
    "VALUE MEASURED": 23.7
  }
]

* * *

test: in vitro; conditions: human, % of cell viability compared to control, 3. measurement, HepG2, 75 µM
MEASURE: viability at 75 µM

[
  {
    "COMPOUND": "COc1ccc2cc3[n+](cc2c1OCc1ccc(Cl)c(Cl)c1)CCc1cc2c(cc1-3)OCO2 [16k]",
    "MEASURE": "viability at 75 µM",
    "VALUE MEASURED": "0.77%"
  },
  {
    "COMPOUND": "COc1ccc2cc3[n+](cc2c1OCc1cccc(Cl)c1)CCc1cc2c(cc1-3)OCO2 [16h, 9-O-(3-chlorbenzyl)berberine chloride]",
    "MEASURE": "viability at 75 µM",
    "VALUE MEASURED": "2.92%"
  },
  {
    "COMPOUND": "COc1ccc2cc3[n+](cc2c1OCc1ccc(Br)cc1)CCc1cc2c(cc1-3)OCO2 [16g, 9-O-(4-brombenzyl)berberine chloride]",
    "MEASURE": "viability at 75 µM",
    "VALUE MEASURED": "26%"
  },
  {
    "COMPOUND": "COc1ccc2cc3[n+](cc2c1OCc1ccccc1)CCc1cc2c(cc1-3)OCO2 [16a, 9-O-benzylberberine chloride]",
    "MEASURE": "viability at 75 µM",
    "VALUE MEASURED": "29.6%"
  },
  {
    "COMPOUND": "COc1ccc2cc3[n+](cc2c1OCc1cccc(Br)c1)CCc1cc2c(cc1-3)OCO2 [16f, 9-O-(3-brombenzyl)berberine chloride]",
    "MEASURE": "viability at 75 µM",
    "VALUE MEASURED": "2.27%"
  },
  {
    "COMPOUND": "COc1ccc2cc3[n+](cc2c1OCc1ccc(C)cc1)CCc1cc2c(cc1-3)OCO2 [16d, 9-O-(4-methylbenzyl)berberine chloride]",
    "MEASURE": "viability at 75 µM",
    "VALUE MEASURED": "18.3%"
  },
  {
    "COMPOUND": "COc1ccc2cc3[n+](cc2c1OCc1cccc(C)c1)CCc1cc2c(cc1-3)OCO2 [16c, 9-O-(3-methylbenzyl)berberine chloride]",
    "MEASURE": "viability at 75 µM",
    "VALUE MEASURED": "46.1%"
  },
  {
    "COMPOUND": "COc1ccc2cc3[n+](cc2c1OCc1ccccc1C)CCc1cc2c(cc1-3)OCO2 [16b, 9-O-(2-methylbenzyl)berberine chloride]",
    "MEASURE": "viability at 75 µM",
    "VALUE MEASURED": "42.6%"
  }
]

Origin of the recorded values: paper PMC9221290
